system: sodium channels in neonatal rat cortical neurons; assay: Patch clamp of rat cortical neurons, sodium currents; type: cell-based; settings: read-out: IC50 against sodium channels

{"columns": ["compound", "IC50"],
 "data": [
  ["CCN(CC)C(=O)c1cccc(C)c1 [DEET, N, N-diethyl-meta-toluamide]", "~700 µM"]
]}

---

Biological target: Musca domestica AChE (MdAChE) (Musca domestica, UniProt Q7YWJ9)
Experiment: AChE inhibition, Ellman assay
Format: biochemical
Conditions: mean, n = 3; read-out: IC50 (95% CI)
Description: In vitro biochemical assays utilized five acetylcholinesterase (AChE) enzymes. Recombinant human AChE (hAChE) was purchased from a commercial source (lyophilized powder, Sigma C1682, St. Louis, MO, USA). […] Inhibition of AChE was determined using the Ellman assay and was based on the method outlined in Carlier et al.. […] Changes in absorbance were recorded by a DYNEX Triad spectrophotometer (DYNEX Technologies, Chantilly, VA, USA) at 405 nm. […]
pIC50: −log10 of the molar value.
In this section we review reported pIC50 values for a set of molecules.

{"columns": ["molecule", "limit-qualifier", "pIC50"],
 "data": [
  ["CCN(CC)CC(=O)Nc1c(C)cccc1C", "=", 2.31],
  ["CCN(CC)C(=O)c1cccc(C)c1 [DEET, N, N-diethyl-meta-toluamide]", "=", 2.22],
  ["Cc1ccccc1", "<", 2.00]
]}

---

biological target: acetylcholinesterase; test: AChE inhibition, Ellman assay, summary statements across enzymes; settings: Drosophila melanogaster, Musca domestica, and human acetylcholinesterases, abstract
pIC50: −log10 of the molar value.

{"columns": ["compound", "pIC50"],
 "data": [
  ["CCN(CC)C(=O)c1cccc(C)c1 [DEET, N, N-diethyl-meta-toluamide]", "1.92 to 2.22"]
]}

---

In this section we review reported pIC50 values for a set of compounds.
molecular target: Drosophila melanogaster AChE (DmAChE) (Drosophila melanogaster, UniProt P07140); construct: five whole bodied Drosophila, or three Musca heads homogenized; from tissue; host or cells: whole Drosophila (Oregon-R), supernatant of homogenate; assay: AChE inhibition, Ellman assay; type: biochemical; conditions: mean, n = 3; read-out: IC50 (95% CI)
pIC50: −log10 of the molar value.

{"columns": ["compound", "tested-target", "limit-qualifier", "pIC50"],
 "data": [
  ["CCN(CC)CC(=O)Nc1c(C)cccc1C [Lidocaine, lidocaine]", "Drosophila melanogaster AChE (DmAChE) (Drosophila melanogaster, UniProt P07140)", "=", 2.02],
  ["CCN(CC)C(=O)c1cccc(C)c1 [DEET, N, N-diethyl-meta-toluamide]", "Drosophila melanogaster AChE (DmAChE) (Drosophila melanogaster, UniProt P07140)", "=", 2.00],
  ["Cc1ccccc1 [Toluene, toluene]", "Drosophila melanogaster AChE (DmAChE) (Drosophila melanogaster, UniProt P07140)", "<", 2.00]
]}

---

In this section we review reported IC50 values for a set of compounds.
target: Recombinant human AChE (hAChE) (Homo sapiens, UniProt P22303); assay: AChE inhibition, Ellman assay; conditions: mean, n = 3; read-out: IC50 (95% CI)

{"columns": ["compound", "tested-target", "limit-qualifier", "IC50 [mM]"],
 "data": [
  ["CNC(=O)Oc1ccccc1OC(C)C [propoxur]", "Recombinant human AChE (hAChE) (Homo sapiens, UniProt P22303)", "=", 0.00144],
  ["Cc1ccccc1 [Toluene, toluene]", "Recombinant human AChE (hAChE) (Homo sapiens, UniProt P22303)", ">", 10],
  ["CCN(CC)C(=O)c1cccc(C)c1 [DEET, N, N-diethyl-meta-toluamide]", "Recombinant human AChE (hAChE) (Homo sapiens, UniProt P22303)", "=", 12]
]}

---

In this section we review reported pIC50 values for a set of molecules.
target: Aedes aegypti AChE (AeAChE) (Aedes aegypti); construct: Homogenate enzymes were prepared from groups of ten non-blood fed adult female mosquitoes; from tissue; host or cells: whole adult female mosquitoes, supernatant of homogenate; experiment: AChE inhibition, Ellman assay; format: biochemical; details: mean, n = 3; read-out: IC50 (95% CI)
pIC50: −log10 of the molar value.
quantity-kind: pIC50

{"columns": ["molecule", "tested-target", "result-value"],
 "data": [
  ["CCN(CC)CC(=O)Nc1c(C)cccc1C", "Aedes aegypti AChE (AeAChE) (Aedes aegypti)", "< 2.00"],
  ["CCN(CC)C(=O)c1cccc(C)c1 [DEET, N, N-diethyl-meta-toluamide]", "Aedes aegypti AChE (AeAChE) (Aedes aegypti)", "< 2.00"]
]}

---

In this section we review reported pIC50 values for a set of molecules.
target: AKRON AgAChE (G119S AChE mutation) (Anopheles gambiae, UniProt Q869C3, G280S); construct: Homogenate enzymes were prepared from groups of ten non-blood fed adult female mosquitoes; experiment: AChE inhibition, Ellman assay
pIC50: −log10 of the molar value.
quantity-kind: pIC50

{"columns": ["molecule", "quantity-kind", "result-value"],
 "data": [
  ["CNC(=O)Oc1ccccc1OC(C)C", "pIC50", "< 4.00"],
  ["Cc1ccccc1", "pIC50", "< 2.00"],
  ["CCN(CC)C(=O)c1cccc(C)c1 [DEET, N, N-diethyl-meta-toluamide]", "pIC50", "< 2.00"],
  ["CCN(CC)CC(=O)Nc1c(C)cccc1C", "pIC50", "< 2.00"]
]}

---

Molecular target: Anopheles gambiae AChE (AgAChE), wild type G3 strain (Anopheles gambiae, UniProt Q869C3)
Construct: Homogenate enzymes were prepared from groups of ten non-blood fed adult female mosquitoes; from tissue; host or cells: whole adult female mosquitoes, G3 strain, supernatant of homogenate
Assay: AChE inhibition, Ellman assay
Assay type: biochemical
Procedure: In vitro biochemical assays utilized five acetylcholinesterase (AChE) enzymes. Recombinant human AChE (hAChE) was purchased from a commercial source (lyophilized powder, Sigma C1682, St. Louis, MO, USA). Homogenates to prepare Anopheles gambiae AChE (AgAChE) were obtained from the wild type G3 strain and the resistant AKRON strain (BEI Resources; http://www.beiresources.org/). […] Inhibition of AChE was determined using the Ellman assay and was based on the method outlined in Carlier et al.. […]
In this section we review reported IC50 values for a set of molecules.

{"columns": ["smiles", "limit-qualifier", "IC50, µM"],
 "data": [
  ["Cc1ccccc1", ">", 10000],
  ["CNC(=O)Oc1ccccc1OC(C)C", "=", 0.447]
]}

---

target: Aedes aegypti AChE (AeAChE) (Aedes aegypti); construct: Homogenate enzymes were prepared from groups of ten non-blood fed adult female mosquitoes; from tissue; host or cells: whole adult female mosquitoes, supernatant of homogenate; test: AChE inhibition, Ellman assay; format: biochemical
quantity-kind: IC50 (µM)

{"columns": ["compound", "quantity-kind", "limit-qualifier", "result-value"],
 "data": [
  ["Cc1ccccc1 [Toluene, toluene]", "IC50", ">", 10000],
  ["CNC(=O)Oc1ccccc1OC(C)C [propoxur]", "IC50", "=", 0.37]
]}

---

molecular target: Anopheles gambiae AChE (AgAChE), wild type G3 strain (Anopheles gambiae, UniProt Q869C3); construct: Homogenate enzymes were prepared from groups of ten non-blood fed adult female mosquitoes; from tissue; host or cells: whole adult female mosquitoes, G3 strain, supernatant of homogenate; test: AChE inhibition, Ellman assay; assay type: biochemical; settings: mean, n = 3; read-out: IC50 (95% CI)

{"columns": ["compound", "IC50"],
 "data": [
  ["CCN(CC)C(=O)c1cccc(C)c1 [DEET, N, N-diethyl-meta-toluamide]", "> 10 mM"],
  ["CCN(CC)CC(=O)Nc1c(C)cccc1C", "> 10 mM"]
]}
